Reference for the values: PubChem BioAssay AID1159580

- test-protocol: chemical genetic growth profiling, strain panel (AID 1159580);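 also: tested at 20 µM; growth read once vehicle control cultures reached saturation at 30 °C; 1 = growth at the plate median or of vehicle wells; lower values mean less growth of the strain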
- condition-notes: S. cerevisiae deletion strains, growth OD, locus YJL129C, strain trk1, active compounds read low
About 2,000 (36%) of roughly 5,500 compounds were called active. Roughly 18% stayed inconclusive and do not appear here. Some of the results follow.
normalized growth less than 1 is True; normalized growth greater than or equal to 1 is False.

> print(dat)
                                   compound  label
1   C/C(=C\CO)CC[C@H](C)CCC[C@H](C)CCCC(C)C  False
2                       COc1cc(O)ccc1C(C)=O  False
3                      CN1CCC[C@H]1c1cccnc1  False
4    O=C(O)[C@H]1/C(=C/CO)O[C@@H]2CC(=O)N21   True
5         O=C(CCc1ccc(O)cc1)c1c(O)cc(O)cc1O  False
6  CC1(C)CC23C(=O)CCC(O)C2(C)CCC13 (centres undefined)   True
7            COc1ccc(CC(=O)c2ccc(O)cc2O)cc1   True

---

- test-protocol: chemical genetic growth profiling, strain panel (AID 1159580)
- condition-notes: S. cerevisiae deletion strains, growth OD, locus YOR265W, strain rbl2, active compounds read low
Among all 5,500 compounds or so, about 2,000 (36%) were called active. Inconclusive results (about 18%) are left out. The list shows a part of the results.
Entries and their normalized growth
observed-property: normalized growth

> print(dat)
                                   compound  observed.property  experimental.value
1  COc1cc2c(cc1OC)C(C)NCC2 (configuration not stated)  normalized growth               0.977
2  Cc1cc2nc3c(=O)[nH]c(=O)nc-3n(CC(O)C(O)C(O)CO)c2cc1C (configuration not stated)  normalized growth               0.973
3                  O=C1C=CC(=O)c2c(O)cccc21  normalized growth               0.966
4       Cc1cc(O)c2c(c1)C(=O)c1cccc(O)c1C2=O  normalized growth               0.996
5                                       CON  normalized growth                1.01
6                          CC(=O)c1ccc[nH]1  normalized growth                1.02
7          O=C1c2cccc(O)c2C(=O)c2c(O)cccc21  normalized growth               0.935

---

- test-protocol: chemical genetic growth profiling, strain panel (AID 1159580)
- condition-notes: S. cerevisiae deletion strains, growth OD, locus YER111C, strain swi4, active compounds read low
About 2,000 (36%) of roughly 5,500 compounds were called active. Roughly 18% stayed inconclusive and do not appear here. This is one part of the list.
The entries below are paired with their reported normalized growth.

molecule	normalized growth
CC1CC(OC(=O)c2ccccc2O)CC(C)(C)C1 (stereo not given)	0.985
CC12CCC(O)CC1CCc1ccccc12 (stereo not given)	0.96
COc1ccccc1OCC(O)COC(N)=O (stereo not given)	0.981
O=C(O)c1cc(=O)c2ccccc2[nH]1	0.983
C=C(C)C1Cc2c(ccc3c(=O)c4c(oc23)COc2cc(OC)c(OC)cc2-4)O1 (stereo not given)	1.01
CC(=O)O[C@H]1CC2CCC3C(CC[C@@]4(C)C3C[C@H]([N+]3(C)CCCCC3)[C@@H]4OC(C)=O)[C@@]2(C)C[C@@H]1N1CCCCC1 (stereo not given in full)	1.01
C=CC[C@@H]1/C=C(\C)C[C@H](C)C[C@H](OC)[C@H]2O[C@@](O)(C(=O)C(=O)N3CCCC[C@H]3C(=O)O[C@H](/C(C)=C/[C@@H]3CC[C@@H](O)[C@H](OC)C3)[C@H](C)[C@@H](O)CC1=O)[C@H](C)C[C@@H]2OC	1.02
CN1CCN(C2=Nc3cc(Cl)ccc3Nc3ccccc32)CC1	0.975
Cc1cc2nc3c(=O)[nH]c(=O)nc-3n(CC(O)C(O)C(O)CO)c2cc1C (stereo not given)	1
COC(=O)CC1C(C)(C(=O)c2ccoc2)CC2OCC34C(CC(=O)OC)C5(C)CC36OC3(C)OC1(C(OC(C)=O)C6(OC(C)=O)C5OC(=O)C(C)C)C24O3 (stereo not given)	0.959

---

- test-protocol: chemical genetic growth profiling, strain panel (AID 1159580);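 also: tested at 20 µM; growth read once vehicle control cultures reached saturation at 30 °C; 1 = growth at the plate median or of vehicle wells; lower values mean less growth of the strain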
- condition-notes: S. cerevisiae deletion strains, growth OD, locus YDR150W, strain NUM1, active compounds read low
The whole screen tested about 5,500 compounds, of which about 2,000 (36%) were called active. Inconclusive results (about 18%) are left out. This is one part of the list.
Measured normalized growth, listed per entry.
observed-property: normalized growth

> print(dat)
                                   molecule  experimental.value
1  FC(F)(F)c1cc(-c2ccco2)nc2cc(-c3ccco3)nn12               0.889
2  Cc1cc(C(F)(F)F)n2nc(-c3ccc(C(C)(C)C)cc3)cc2n1               0.965
3  CCOC(=O)c1ccc(N2CCOCC2)c(N=Cc2cc(Cl)ccc2O)c1                0.91
4  FC(F)(F)c1cc(-c2ccc(Cl)cc2)nc2cc(C3CC3)nn12                0.99
5  COC1=CC23CCCN2CCc2cc4c(cc2C3C1O)OCO4 (stereo unspecified)                1.01
6                   Cc1cc(N=C(N)N=C(N)N)no1               0.902

---

- test-protocol: chemical genetic growth profiling, strain panel (AID 1159580);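 also: tested at 20 µM; growth read once vehicle control cultures reached saturation at 30 °C; 1 = growth at the plate median or of vehicle wells; lower values mean less growth of the strain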
- condition-notes: S. cerevisiae deletion strains, growth OD, locus YPL241C, strain CIN2
Hit rate of the full screen: of about 5,500 compounds, about 2,000 (36%) were called active. Not shown: some 18% with an inconclusive outcome. Rule as the data show it: active = normalized growth mostly below about 0.91 (no sharp cut-off); inconclusive = no clear call, values can overlap the other calls; inactive = mostly above about 0.92. Some of the results follow.
Outcome codes: active, inactive

> print(dat)
                                    molecule     label
 1                           Oc1cccc2cccnc12    active
 2             O=[N+]([O-])c1ccc(NCCCCCO)nc1  inactive
 3  CC(C)c1cc2c(c(O)c1O)[C@@]1(C(=O)O)CCCC(C)(C)C1CC2 (stereo partly specified)    active
 4                  CN1C(=O)CC[C@H]1c1cccnc1  inactive
 5         COc1ccc(NS(=O)(=O)c2ccc(N)cc2)nn1  inactive
 6  Nc1nc(SCc2ccc([N+](=O)[O-])cc2)c2ncn([C@@H]3O[C@H](CO)[C@H](O)C3O)c2n1 (stereo partly specified)  inactive
 7    COC(=O)c1cc(OC)c(=O)c2c(OC)c(OC)ccc2c1  inactive
 8  O=C(OCCNc1ccc([N+](=O)[O-])cn1)c1ccc([N+](=O)[O-])o1  inactive
 9            CC(=O)Nc1c(I)cc(I)c(C(=O)O)c1I  inactive
10  COC(=O)C[C@H]1C(C)(C)[C@H](O)[C@@H]2CC3=C4CC(O)O[C@@H](c5ccoc5)[C@]4(C)CCC3[C@@]1(C)C2=O (stereo partly specified)  inactive
11                  c1ccc2nc(C3=NCCN3)ccc2c1  inactive

---

- test-protocol: chemical genetic growth profiling, strain panel (AID 1159580);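 also: tested at 20 µM; growth read once vehicle control cultures reached saturation at 30 °C; 1 = growth at the plate median or of vehicle wells; lower values mean less growth of the strain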
- condition-notes: S. cerevisiae deletion strains, growth OD, locus YBR023C, strain chs3, active compounds read low
About 2,000 (36%) of roughly 5,500 compounds were called active. Inconclusive results (about 18%) are left out. The list shows a part of the results.
Consider the following compounds and their measured normalized growth readings.
observed-property: normalized growth

> print(dat)
                                    compound  experimental.value
 1                Cn1c(=O)c2c(ncn2C)n(C)c1=O               0.978
 2         O=c1c(O)c(-c2ccccc2)oc2cc(O)ccc12               0.518
 3                          CC(=O)c1ccc[nH]1               0.998
 4         O=c1c(O)c(-c2ccc(O)cc2)oc2ccccc12               0.643
 5            O=c1c(O)c(-c2ccccc2)oc2ccccc12               0.363
 6              CNC(=O)N(C)c1nnc(C(C)(C)C)s1               0.994
 7       O=c1c(O)c(-c2ccccc2)oc2ccc3occc3c12                0.71
 8                                       CON                1.01
 9              Cn1c(=O)c2c(ncn2CCO)n(C)c1=O                1.01
10  CC(C)C1CCC(C(=O)N[C@@H](Cc2ccccc2)C(=O)O)CC1 (stereo partly drawn)               0.973
11       CC(=O)CCCCn1c(=O)c2c(ncn2C)n(C)c1=O                1.01
12  O=C(Nc1ccc([N+](=O)[O-])cc1Cl)c1cc(Cl)ccc1O               0.757
13                Cn1c(=O)[nH]c2nc[nH]c2c1=O               0.993
